- tested.target: T1, human neonatal Fc receptor (hFcRn) (human, UniProt P55899 24-290; P61769 21-119)
- T1 construct: Biotinylated in the ELISA, Octet and yeast assays; also called human FcRn; huFcRn
- T1 sequence (P55899 24-290 limits assumed, chain 1 of 2): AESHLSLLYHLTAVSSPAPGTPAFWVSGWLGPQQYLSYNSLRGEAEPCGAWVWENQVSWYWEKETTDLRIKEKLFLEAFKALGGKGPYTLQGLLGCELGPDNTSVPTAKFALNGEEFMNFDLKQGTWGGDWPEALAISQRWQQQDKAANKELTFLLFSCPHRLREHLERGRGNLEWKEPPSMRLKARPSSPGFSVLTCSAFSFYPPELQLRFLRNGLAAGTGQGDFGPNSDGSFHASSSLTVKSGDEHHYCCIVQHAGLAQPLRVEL
- T1 sequence (P61769 21-119 limits assumed, chain 2 of 2): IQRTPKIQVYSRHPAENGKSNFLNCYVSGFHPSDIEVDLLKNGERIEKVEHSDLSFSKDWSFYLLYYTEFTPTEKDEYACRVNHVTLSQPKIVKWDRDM
- assay.notes: phage ELISA pH 6;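 note: higher score means stronger binding and above about 3 to 5 exceeds background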
quantity: ELISA score
Reply with the value as a number alone.

Consider the worked cases shown below.
{"binder": "L6A isolate with insertion SEQ ID NO: 466 (other) EPKSCDKTHTCPPCPAPELLGGPSVFLFPPKPKDTLMISRTPEVTCVVVDVSHEDPEVKFNWYVDGVEVHNAKTKPREEQYNSTYRVVSVLTVLHQDWLNGKEYKCKVSNKALPAPIEKTISKAKGQPREPQVYTLPPSRDELGGCDRFQNVNVCGGTKNQVSLTCLVKGFYPSDIAVEWESNGQPENNYKTTPPVLDSDGSFFLYSKLTVDKSRWQQGNVFSCSVMHEALHNHYTQKSLSLSPGK", "result.number": 44}
{"binder": "L5 isolate with insertion SEQ ID NO: 480 (other) EPKSCDKTHTCPPCPAPELLGGPSVFLFPPKPKDTLMISRTPEVTCVVVDVSHEDPEVKFNWYVDGVEVHNAKTKPREEQYNSTYRVVSVLTVLHQDWLNGKEYKCKVSNKALPAPIEKTISKAKGQPREPQVYTLPPSRDELTKNQVSLTCLVKGFYPSDIAVEWESNGGCAGPYWACGGGQPENNYKTTPPVLDSDGSFFLYSKLTVDKSRWQQGNVFSCSVMHEALHNHYTQKSLSLSPGK", "result.number": 33.7}

Proceeding to the next binder to report its ELISA score.
Prompt line: Note ELISA score for the binder shown: variant Fc-fragment Fc-5-64 (other, soluble elsewhere) EPKSCDKTHTCPPCPAPELLGGPSVFLFPPKPKDTLMISRTPEVTCVVVDVSHEDPEVKFNWYVDGVEVHNAKTKPREEQYNSTYRVVSVLTVLHQDWLNGKEYKCKVSNKALPAPIEKTISKAKGQPREPQVYTLPPSRDELTKNQVSLTCLVKGFYPSDIAVEWESNGGCHSFKHFCGGGQPENNYKTTPPVLDSDGSFFLYSKLTVDKSRWQQGNVFSCSVMHEALHNHYTQKSLSLSPGK
Response line: 57.2
